test system: 2C antibody (IgG fraction of antiserum raised to 2C-B-BSA); assay: Competitive microtitre plate ELISA, 2C antibody (antiserum raised to 2C-B-BSA); type: binding; conditions: 2C antibody; relative to 2C-B = 100%; calibration curves 0-80 ng/ml
So I've got a bunch of compounds here, and I need their % Cross-Reactivity values.
Quick reminder: number only, in %, skip the unit.

**Query** Which value of % Cross-Reactivity has been reported for COc1cc(CCN)c(OC)cc1C#N in the records?
**Result** 66.8

**Query** For CCc1cc(OC)c(CCN)cc1OC then?
**Result** 178.8

**Query** Then COc1cc(CCN)c(OC)cc1Br ?
**Result** 100.0

**Query** What do you get for COc1cc(CCN)c(OC)cc1Cl ?
**Result** 148.6

**Query** Now give it for COc1cc(CCN)c(OC)cc1C too.
**Result** 308.3

**Query** And what about the compound CCCc1cc(OC)c(CCN)cc1OC ?
**Result** 276.8
